experiment: acute toxicity in the rat; conditions: in vivo; male and female rat; oral route
Experimental Readout: LD50

Molecule | Reported Measurement
O=C(O)CN1CCC(S)C1=O (centres unmarked) | > 5000 mg/kg

### Prompt // LD50 lookup, key: O=C(O)CN1CCC(SC(=O)c2cccs2)C1=O (centres unmarked)
### Response > 5000 mg/kg

* * *

assay: acute toxicity in the mouse; details: in vivo; male and female mouse; oral route
Experimental Readout: LD50

Compound | Reported Measurement
O=C(O)CN1CCC(S)C1=O (centres unmarked) [V] | > 3000 mg/kg

Okay, next one:
### Prompt // LD50 lookup, key: O=C(O)CN1CCC(SC(=O)c2cccs2)C1=O (centres unmarked) [VI]
### Response > 3000 mg/kg
